Where do the numbers come from? From patent US12240862B2.

# key: entry, value: pIC50
- system under test: human PAD4 (Homo sapiens)
- Construct: human PAD4 (NM_012387), A2P663, was PCR amplified; His-SUMO (N, cleaved yes); made in house; host or cells: E. coli BL21(DE3)
- Sequence (Q9UM07 2-663): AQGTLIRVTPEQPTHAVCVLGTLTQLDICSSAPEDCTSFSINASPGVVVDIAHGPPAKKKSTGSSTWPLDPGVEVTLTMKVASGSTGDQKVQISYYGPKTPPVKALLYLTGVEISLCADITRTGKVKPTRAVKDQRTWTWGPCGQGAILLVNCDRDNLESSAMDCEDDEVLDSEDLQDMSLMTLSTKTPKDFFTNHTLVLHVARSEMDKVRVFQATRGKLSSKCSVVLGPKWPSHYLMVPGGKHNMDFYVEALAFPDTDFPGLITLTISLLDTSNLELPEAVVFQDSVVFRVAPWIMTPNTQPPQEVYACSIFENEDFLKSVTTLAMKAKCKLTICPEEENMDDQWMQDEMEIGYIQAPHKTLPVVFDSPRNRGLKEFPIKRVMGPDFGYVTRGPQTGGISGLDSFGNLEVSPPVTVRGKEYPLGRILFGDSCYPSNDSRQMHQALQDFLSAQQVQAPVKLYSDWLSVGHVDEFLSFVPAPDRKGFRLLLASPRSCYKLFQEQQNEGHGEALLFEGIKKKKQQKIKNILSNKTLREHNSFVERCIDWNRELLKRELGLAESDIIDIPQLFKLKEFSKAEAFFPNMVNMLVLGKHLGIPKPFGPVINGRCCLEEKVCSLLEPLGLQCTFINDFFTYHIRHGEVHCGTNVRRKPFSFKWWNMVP
- assay text: In vitro PAD4 BAEE biochemical assay
- condition summary: human PAD4, BAEE substrate; 5 nM PAD4, 2 mM calcium chloride, 3 mM BAEE; geometric mean of multiple experiments
Notebook: values listed as pIC50 are -log10 of the concentration (mol/L).

Solved entries:
COc1cc(C(=O)N2[C@H]3CC[C@@H]2[C@H](N)C3)cc2nc(-c3cc4ccc([C@@H](C)NC(=O)c5cnco5)nc4n3CC3CC3)c(C)n12 : 7.48
COc1cc(C(=O)N2[C@H]3CC[C@@H]2[C@H](N)C3)cc2nc(-c3cc4ccc([C@@H](C)NC(=O)Nc5ccccc5)nc4n3CC3CC3)c(C)n12 : 7.09

Let's switch to this compound now.
Value of pIC50 reported for the compound CCC(NC(C)=O)c1ccc2cc(-c3nc4cc(C(=O)N5CCC[C@@H](N)C5)cc(OC)n4c3C)n(CC3CC3)c2n1 (stereo partly drawn) is 6.40
